assay: PC3 cell line toxicity (Cell titer Glo viability); format: cell-based; details: human, PC3 prostate adenocarcinoma cells; PC3, 30 uM, 72 h
readout-name: viability at 72 h, 30 µM

CN[C@@H]1C[C@H]2O[C@@](C)([C@@H]1OC)n1c3ccccc3c3c4c(c5c6ccccc6n2c5c31)C(=O)NC4 [Staurosporine, staurosporine, reference compound] yielded viability at 72 h, 30 µM of 7.1%

###

experiment: in vitro; conditions: human
readout-name: viability at 0.014 µM (%)
The reply should contain only the number, in %.

CN[C@@H]1C[C@H]2O[C@@](C)([C@@H]1OC)n1c3ccccc3c3c4c(c5c6ccccc6n2c5c31)C(=O)NC4 [Staurosporine, staurosporine, reference compound] yielded viability at 0.014 µM of 66.6
